Test system: YAPC (Pancreatic Carcinoma)
TEST: combination Emax (second highest fraction inhibited in the dose matrix, 72 h); higher = more inhibition; extreme values may be limits of the assay
READOUT: combination Emax

compound="CCc1c2c(nc3ccc(O)cc13)-c1cc3c(c(=O)n1C2)COC(=O)[C@]3(O)CC [SN-38] + O=C(c1cc(Cc2n[nH]c(=O)c3ccccc23)ccc1F)N1CCN(C(=O)C2CC2)CC1 [Olaparib] (first compound max 0.3 µM, 7x7, partner max 10 µM)" meas_value=0.646

Fill in the blank: the reported combination Emax of CC1(C)CCC(CN2CCN(c3ccc(C(=O)NS(=O)(=O)c4ccc(NCC5CCOCC5)c([N+](=O)[O-])c4)c(Oc4cnc5[nH]ccc5c4)c3)CC2)=C(c2ccc(Cl)cc2)C1 [Venetoclax] + C[C@@H]1COCCN1C2=NC(=NC(=C2)C3(CC3)[S@](=N)(=O)C)C4=C5C=CNC5=NC=C4 [AZD6738] (first compound max 1 µM, 7x7, partner max 10 µM) is ____. 0.317

What about this compound? CN(CCO)CC[C@H](CSc1ccccc1)Nc1ccc(S(=O)(=O)NC(=O)c2ccc(N3CCC([C@@H](O)c4ccccc4-c4ccc(Cl)cc4)CC3)cc2)cc1S(=O)(=O)C(F)(F)F [AZD4320] + CN(C)CCCOc1ccc(-c2ccc3ncc4c(c3c2)n(C2CCOCC2)c(=O)n4C)cn1 [AZD0156] (first compound max 1 µM, 7x7, partner max 1 µM) 0.129

What about this compound? CC(=O)c1c(C)c2cnc(Nc3ccc(N4CCNCC4)cn3)nc2n(C2CCCC2)c1=O [Palbociclib] + Cn1cnc2c(F)c(Nc3ccc(Br)cc3Cl)c(C(=O)NOCCO)cc21 [Selumetinib] (first compound max 10 µM, 7x7, partner max 10 µM) 0.379

What about this compound? CN(CCO)CC[C@H](CSc1ccccc1)Nc1ccc(S(=O)(=O)NC(=O)c2ccc(N3CCC([C@@H](O)c4ccccc4-c4ccc(Cl)cc4)CC3)cc2)cc1S(=O)(=O)C(F)(F)F [AZD4320] + CCN(CCO)CCCOc1ccc2c(Nc3cc(CC(=O)Nc4cccc(F)c4)[nH]n3)ncnc2c1 [AZD2811] (first compound max 1 µM, 7x7, partner max 1 µM) 0.0932

What about this compound? O=C(c1cc(Cc2n[nH]c(=O)c3ccccc23)ccc1F)N1CCN(C(=O)C2CC2)CC1 [Olaparib] + COc1nnc2ccc(N3CCC(c4ccc(OCCN5CCN(C)C(=O)[C@H]5C)cc4)CC3)nn12 [AZD5153] (first compound max 10 µM, 7x7, partner max 1 µM) 0.267

Origin of the recorded values: the supplement of paper PMC11061612
